- System name: kappa opioid receptor (kOR) (Homo sapiens)
- Sequence (P41145 whole entry): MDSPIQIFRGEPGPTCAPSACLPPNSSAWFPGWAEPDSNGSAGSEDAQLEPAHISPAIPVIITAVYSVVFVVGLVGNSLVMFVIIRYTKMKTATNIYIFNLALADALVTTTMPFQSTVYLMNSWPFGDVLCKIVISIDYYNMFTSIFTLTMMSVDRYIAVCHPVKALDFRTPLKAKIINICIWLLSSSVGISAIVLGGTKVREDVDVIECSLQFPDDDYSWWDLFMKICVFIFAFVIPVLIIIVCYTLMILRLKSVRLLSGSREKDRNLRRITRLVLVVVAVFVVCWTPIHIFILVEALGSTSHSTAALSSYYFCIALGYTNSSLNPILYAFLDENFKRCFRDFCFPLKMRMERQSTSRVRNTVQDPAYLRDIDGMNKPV
Reported metric: Ki (µM)
Please state the figure in µM; there is no need to write the unit.

Retrieve Ki on kappa opioid receptor (kOR) (Homo sapiens); query CC[C@H]1CC2C[C@H]3c4[nH]c5ccc(O)cc5c4CCN(C2)C13 [Noribogaine, 12-hydroxyibogamine] 1
